Origin of values: PubChem BioAssay AID1851

- Assayed system: Cytochrome P450 1A2 (Homo sapiens)
- Protocol: Cytochrome panel assay with activity outcomes; further: on the % scale 0 is the no-effect control and ±100 the full control effect
- Condition description: recombinant CYP, pro-luciferin dealkylation, luminescence, p450-cyp1a2; series mostly up to 57.1 µM
- Experimental: The P450 gene superfamily is involved in the metabolism and clearance of xenobiotics. This assay used various human CYP P450 isozymes to measure the dealkylation of various pro-luciferin substrates to luciferin. The luciferin is then measured by luminescence after the addition of a luciferase detection reagent. […] Inhibitors and some substrates limit the production of luciferin, and decrease measured luminescence. […] 8, Detection, 1 sec, ViewLux luminescent read […]
The whole screen tested about 16,000 compounds, of which about 5,700 (36%) were called active. Not shown: some 24% with an inconclusive outcome. The list shows a part of the results.
What activity, negative = inhibition was measured for each of the following?

Form field: reported activity, negative = inhibition of `CC[C@]1(OC(=O)CN)C(=O)OCc2c1cc1n(c2=O)Cc2cc3ccccc3nc2-1`
-17.6% [at 2.29 µM] (inactive)

Recorded activity, negative = inhibition for `NS(=O)(=O)c1ccc(-c2ccc([As](=O)(O)O)cc2)cc1` , please?
-0.225% [at 11.4 µM] (inactive)

Which activity, negative = inhibition value belongs to `c1ccc2c(c1)Sc1ccccc1N2C[C@H]1CN2CCC1CC2` ?
-5.29% [at 11.4 µM] (inactive)

Request the reported activity, negative = inhibition associated with `COc1cc2c3cc1Oc1c(O)c(OC)cc4c1[C@@H](Cc1ccc(cc1)Oc1cc(ccc1O)C[C@H]3N(C)CC2)N(C)CC4`
-8.21% [at 11.4 µM] (inactive)

What does the data say about its activity, negative = inhibition? Entry: `CC1=C2C(=O)[C@@H]3[C@@H](CC=C4C[C@@H](O)CC[C@@]43C)[C@H]2CC[C@@]12O[C@H]1C[C@H](C)CN[C@H]1[C@@H]2C`
-16.8% [at 11.4 µM] (inactive)

I'd like to know its activity, negative = inhibition. The compound in question is `CC(C)c1ccc(C(c2c(O)c3ccccc3oc2=O)c2c(O)c3ccccc3oc2=O)cc1`
-18.8% [at 2.29 µM] (inactive)

Record request: activity, negative = inhibition value, item `CC(C)c1ccc(C(O)(C(=O)O)c2ccc(C(C)C)cc2)cc1`
-8.75% [at 11.4 µM] (inactive)

Need activity, negative = inhibition of `COC(=O)NC/C=C\c1nc(CC/C=C\C(=O)O[C@H]2C[C@H]3CC(=O)O[C@@H](/C=C\CC(C)C)C[C@@H]4CC[C@H](C)[C@H](C[C@@H](OC)C[C@H](C2)O3)O4)co1` , thanks.
3.2% [at 11.4 µM] (inactive)
